Quick reference: protein stability index of the listed items.
B1: BTBD1 (parent)
chain: TSAEIELPDVEPAAFLALLRFLYS

- Variants of: B1
- test method notes: protein stability index of a GFP-peptide fusion (GPS, HEK-293T) (PSI 1-6); higher = more stable;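 further: lentivirally expressed fusions sorted by FACS into six bins by GFP to DsRed ratio, PSI derived from sequencing read proportions per bin multiplied by bin number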
- cond: c terminus: a fixed tail appended
observable: protein stability index

>>> df
                     query_sequence  experimental_result
 0   TSACIELPDVEPAAFLALLRFLYS [E4C]                  1.8
 1   TSAEIEMPDVEPAAFLALLRFLYS [L7M]                 2.08
 2  TSAEIELPDVEPAAFLALLRFLYA [S24A]                 2.19
 3   TSAEIEDPDVEPAAFLALLRFLYS [L7D]                 2.15
 4   TCAEIELPDVEPAAFLALLRFLYS [S2C]                 2.05
 5  TSAEIELPDVERAAFLALLRFLYS [P12R]                 1.93
 6  TSAEIELPDVEPAAFSALLRFLYS [L16S]                 1.69
 7   TSAEIEKPDVEPAAFLALLRFLYS [L7K]                 2.31
 8  TSAEIELPDVEPARFLALLRFLYS [A14R]                 1.87
 9   TSAEEELPDVEPAAFLALLRFLYS [I5E]                 2.03
10   TSAEIEVPDVEPAAFLALLRFLYS [L7V]                 1.98

Data provenance is the supplement of paper PMC10567573.
